Reported values of Activity Level for individual entries
Biological target: wild-type T7 RNA polymerase (Escherichia phage T7, UniProt P00573)
Sequence (P00573 whole entry): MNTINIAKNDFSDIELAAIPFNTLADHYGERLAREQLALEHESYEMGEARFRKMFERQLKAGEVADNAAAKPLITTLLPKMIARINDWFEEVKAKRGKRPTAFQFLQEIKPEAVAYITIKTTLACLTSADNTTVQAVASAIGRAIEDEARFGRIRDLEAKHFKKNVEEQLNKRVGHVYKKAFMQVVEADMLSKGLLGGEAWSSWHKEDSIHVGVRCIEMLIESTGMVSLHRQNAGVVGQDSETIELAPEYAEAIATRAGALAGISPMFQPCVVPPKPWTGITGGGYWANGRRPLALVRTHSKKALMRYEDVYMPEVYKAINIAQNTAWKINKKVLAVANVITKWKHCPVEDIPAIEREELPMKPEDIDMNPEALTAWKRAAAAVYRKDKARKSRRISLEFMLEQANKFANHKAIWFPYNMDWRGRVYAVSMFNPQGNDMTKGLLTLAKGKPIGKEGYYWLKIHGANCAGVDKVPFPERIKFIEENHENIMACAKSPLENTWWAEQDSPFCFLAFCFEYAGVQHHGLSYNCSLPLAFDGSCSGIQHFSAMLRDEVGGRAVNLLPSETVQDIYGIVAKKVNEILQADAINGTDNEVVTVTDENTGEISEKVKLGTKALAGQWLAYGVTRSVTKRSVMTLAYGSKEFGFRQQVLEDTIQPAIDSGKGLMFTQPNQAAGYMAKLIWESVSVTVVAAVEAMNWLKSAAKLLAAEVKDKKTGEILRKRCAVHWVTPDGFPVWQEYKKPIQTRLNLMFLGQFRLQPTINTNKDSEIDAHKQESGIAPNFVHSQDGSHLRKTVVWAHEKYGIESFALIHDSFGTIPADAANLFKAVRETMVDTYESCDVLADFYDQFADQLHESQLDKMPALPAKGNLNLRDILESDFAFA
Assay: Accelerating effect of polyamines on in vitro transcription activity of T7 RNA polymerase ([α32P]UTP incorporation, gel electrophoresis)
Assay type: biochemical, bacteriophage T7
Design: key: fold radioactivity relative to blank without polyamine
Conditions: polyamine final concentration 2 mM, 37° C. for one hour; amplification of radioactivity of transcription products compared to a blank without polyamine
Description: An activation level was evaluated by observing an effect of a polyamine on in vitro transcription activation using bacteriophage T7 RNA polymerase in the reaction system below. […] Data is given in amplification of radioactivity compared to a blank in which a reaction is carried out in parallel in the same condition excepting no polyamine was added.
// return just the number, without any unit appended

Reference set, count: 6
* CCNCCCCNCCCCCCCCCNCCCCNCC [Compound 15f, 1,19-di(ethylamino)-5,15-diazanonadecane] | 1.18
* CCNCCCCNCCCCNCCCCNCC [Compound 15a] | 1.21
* CCNCCCCCNCC [Compound 23, N1,N5-di(ethylamino)pentane] | 3.52
* CCNCCCCNCCCCCCNCCCCNCC [Compound 15c] | 1.12
* CCNCCCCNCCCCCCCCCCNCCCCNCC [Compound 15g, 1,20-di(ethylamino)-5,16-diazaeicosane] | 2.01
* CCNCCCNCCCCN [Compound 18, 1-ethylamino-8-amino-4-azaoctane] | 1.12

Query the reported Activity Level for wild-type T7 RNA polymerase (Escherichia phage T7, UniProt P00573); item: CCNCCCCNCCCCCCCCNCCCCNCC [Compound 15e]
2.52

Query the reported Activity Level for wild-type T7 RNA polymerase (Escherichia phage T7, UniProt P00573); item: CCN(CCCCCN(CC)S(=O)(=O)c1ccc(C)cc1)S(=O)(=O)c1ccc(C)cc1 [Compound 22]
1.43
